Test system: PXR:RXRa (NR concentration 270 nM, RXRa partner concentration 90 nM)
Experiment: PBM binding z-score (relative to random genomic background probes); higher = stronger binding; sequences stand for … in GC…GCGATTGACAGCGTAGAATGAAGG
Threshold rule: PBM binding z-score greater than or equal to 1 is rule met; below that, rule not met.

Incoming: Is PBM binding z-score at least 1? Consider CGAACTAGGTAAGAACAGGACAGTGAAGGATGAT
Outgoing: rule not met

Incoming: Entry CCTCCTAGGTCATGGTCAGCTAATCTACAGTATG : is its PBM binding z-score no less than 1?
Outgoing: rule met

Incoming: Does the sequence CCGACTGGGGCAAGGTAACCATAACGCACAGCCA have recorded PBM binding z-score that is 1 or more?
Outgoing: rule not met

Incoming: Would you say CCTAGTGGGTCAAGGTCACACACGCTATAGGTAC shows PBM binding z-score at minimum 1?
Outgoing: rule met

Incoming: Given the entry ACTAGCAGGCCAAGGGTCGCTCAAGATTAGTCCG , answer whether its PBM binding z-score meets or surpasses 1.
Outgoing: rule not met

Incoming: Reported PBM binding z-score at or above 1? TCTCGGAGGACACGAAGGTCACAGCTTTCCAGAG
Outgoing: rule met

Incoming: Could you please find out whether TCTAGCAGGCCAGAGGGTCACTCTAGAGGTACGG has PBM binding z-score that meets 1 or exceeds it?
Outgoing: rule met

Incoming: # bool: PBM binding z-score of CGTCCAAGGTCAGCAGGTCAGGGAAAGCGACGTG >= 1
Outgoing: rule met

Incoming: Would you say CCGACTGGGGCATAAGGTTGCCATAAGCCAGCCC shows PBM binding z-score at minimum 1?
Outgoing: rule not met

Incoming: Given AGAATGAGGTTATACGTAGATCAGGGACGAAAGT , state whether its PBM binding z-score is at least 1.
Outgoing: rule met

Incoming: Decide: PBM binding z-score of CGAACTAGGTCATCCAGGAAAGTGAATACATTGA >= 1?
Outgoing: rule met
